These data points were gathered from patent US20080255060A1.

As a worked illustration, we turn to MIC data collected for M. catarrhalis ATCC 0324.

Entry CC[C@H]1OC(=O)[C@H](C)[C@@H](OC2C[C@@](C)(OC)[C@@H](OC(=O)CCNCCOCC#Cc3ccc4c(c3)c(=O)c(C(=O)O)cn4CC)[C@H](C)O2)[C@H](C)[C@@H](OC2O[C@H](C)C[C@H](N(C)C)[C@H]2O)[C@](C)(OC)C[C@@H](C)C(=O)[C@H](C)[C@@H](O)[C@]1(C)O (stereo partly drawn) : MIC on M. catarrhalis ATCC 0324 = ≤ 2 µg/mL

Param item: `CC[C@H]1OC(=O)[C@H](C)[C@@H](O[C@H]2C[C@@](C)(OC)[C@@H](OC(=O)CCOCCOCCNc3ccc4c(c3)c(=O)c(C(=O)O)cn4C3CC3)[C@H](C)O2)[C@H](C)[C@@H](O[C@@H]2O[C@H](C)C[C@H](N(C)C)[C@H]2O)[C@](C)(O)C[C@@H](C)CN(C)[C@H](C)[C@@H](O)[C@]1(C)O` ; param system: M. catarrhalis ATCC 0324; output MIC: ≤ 2 µg/mL

Record `CC[C@H]1OC(=O)[C@H](C)[C@@H](O[C@H]2C[C@@](C)(OC)[C@@H](OC(=O)CCNCCOCCOCCNc3cc4c(=O)c(C(=O)O)cn(C5CC5)c4cc3Cl)[C@H](C)O2)[C@H](C)[C@@H](O[C@@H]2O[C@H](C)C[C@H](N(C)C)[C@H]2O)[C@](C)(O)C[C@@H](C)CN(C)[C@H](C)[C@@H](O)[C@]1(C)O` has M. catarrhalis ATCC 0324 MIC equal to ≤ 2 µg/mL
